# target-or-system: T1, CRF2R
# T1 sequence (Q13324 whole entry, species assumed, looked up): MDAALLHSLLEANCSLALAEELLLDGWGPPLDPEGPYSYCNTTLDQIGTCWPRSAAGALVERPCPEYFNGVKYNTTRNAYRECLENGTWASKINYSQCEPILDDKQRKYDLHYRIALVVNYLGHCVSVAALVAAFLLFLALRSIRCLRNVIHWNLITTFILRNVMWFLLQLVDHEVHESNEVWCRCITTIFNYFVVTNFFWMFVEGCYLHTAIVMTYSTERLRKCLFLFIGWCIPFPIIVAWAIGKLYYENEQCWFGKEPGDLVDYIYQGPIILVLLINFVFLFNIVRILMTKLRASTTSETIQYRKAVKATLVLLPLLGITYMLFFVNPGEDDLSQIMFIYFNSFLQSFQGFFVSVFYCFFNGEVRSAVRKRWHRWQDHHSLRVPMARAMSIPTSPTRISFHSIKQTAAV
# assay-method-text: cell-based or functional assay
Ends that are not written are not given here.
result-type: CRF2R EC50 (nM)
Just the number please, in nM, no unit attached.

Sample answers from the record:
# binder, CRF2R EC50, nM
rows = [
    ("ZGPPISIDLPLQLLRKMIEIEKQEKEKQQAANNRLLLDTI (C-terminal amide) [SEQ ID NO 80]", 6.53),
    ("SQEPPISLDLTIGLLREVLEMTKADQLAQQAHSNRKLLDIA-NH2 [SEQ ID NO 86]", 100),
]

Now for a further binder.
Form: binder = ZGPPISIDLPTELLRKMIEIEKQEKEKQQAANNRLLLDTI (C-terminal amide) [SEQ ID NO 71] ; CRF2R EC50 = 94.8

Source listed as patent US20030148956A1.
